Origin of values: patent US5716971A

# Test system: specimen of rat aorta
# assay.protocol: Vasorelaxation activity in a specimen of rat aorta: contraction caused by TEA and BaCl2
# applied.conditions: TEA (30-45 mM) and BaCl2 (0.3 mM) contraction, 3 μM, read-out: constriction inhibitory ratio
Threshold check on inhibition at 3 µM: at or above 90% gives 1.0, strictly below gives 0.0.

The following molecules have reported results that may help.
{"molecule": "CC(C)(C)O/N=C(/c1cc(Cl)c(F)cc1O)c1c(O)ccc[n+]1[O-] [Compound 58]", "answer.label": 1.0}
{"molecule": "Cc1cc(O)c(/C(=N/OC(C)(C)C)c2c(O)ccc[n+]2[O-])cc1F [Compound 127]", "answer.label": 0.0}
{"molecule": "CC(C)(C)O/N=C(/c1cc(Cl)c(Cl)cc1O)c1ncccc1O [Compound 32]", "answer.label": 1.0}
{"molecule": "CCCCO/N=C(/c1cc(Br)ccc1O)c1ncccc1O [Compound 18]", "answer.label": 0.0}
{"molecule": "CC(C)(C)O/N=C(/c1cc(F)c(F)cc1O)c1c(O)ccc[n+]1[O-] [Compound 59]", "answer.label": 1.0}
{"molecule": "CC(C)(C)O/N=C(/c1cc(Br)ccc1O)c1ncccc1O [Compound 6]", "answer.label": 0.0}
{"molecule": "Cc1cc(O)c(/C(=N/OC(C)(C)C)c2c(O)ccc[n+]2[O-])cc1C [Compound 125]", "answer.label": 0.0}
{"molecule": "CC(C)(C)O/N=C(/c1cc(F)c(F)cc1O)c1cccc[n+]1[O-] [Compound 100]", "answer.label": 1.0}

Attention now shifts to the item below.
In: Check if inhibition at 3 µM >= 90% (inclusive). Item: CC(C)(C)O/N=C(/c1cc(Cl)c(F)cc1O)c1ncccc1O [Compound 36]
Out: 0.0

* * *

# System: specimen of rat aorta
# assay.protocol: Vasorelaxation activity in a specimen of rat aorta: contraction caused by KCl
# applied.conditions: 3 μM, read-out: constriction inhibitory ratio
// label = Fulfilled if inhibition at 3 µM is not less than 10%, otherwise Not fulfilled

{"compound": "Cc1cc(O)c(/C(=N/OC(C)(C)C)c2c(O)ccc[n+]2[O-])cc1Br [Compound 67]", "answer.label": "Not fulfilled"}

In: Given the entry CC(C)(C)O/N=C(/c1cc(F)c(C#N)cc1O)c1c(O)ccc[n+]1[O-] [Compound 177] , answer whether its inhibition at 3 µM meets or surpasses 10%.
Out: Not fulfilled

In: In plain terms: is recorded inhibition at 3 µM at least 10% for CC(C)(C)O/N=C(/c1cc(F)c(F)cc1O)c1ncccc1O [Compound 34] ?
Out: Fulfilled

In: Confirm if inhibition at 3 µM reported for the compound CC(C)(C)ON=C(c1cc(Cl)ccc1O)c1ncccc1O [Compound 14] is 10% or above.
Out: Fulfilled

In: Decide: inhibition at 3 µM of CC(C)(C)O/N=C(/c1cc(Br)c(Cl)cc1O)c1cccc[n+]1[O-] [Compound 101] >= 10%?
Out: Fulfilled

In: Exam item: decide whether the reported inhibition at 3 µM for Cc1cc(O)c(/C(=N/OC(C)(C)C)c2c(O)ccc[n+]2[O-])cc1F [Compound 127] is at least 10%.
Out: Not fulfilled

In: Is inhibition at 3 µM at least 10%? Consider CC(C)(C)O/N=C(/c1cc(Br)ccc1O)c1c(O)ccc[n+]1[O-] [Compound 63]
Out: Not fulfilled

In: Evaluate CC(C)(C)O/N=C(/c1cc(Br)ccc1O)c1ncccc1O [Compound 6] : inhibition at 3 µM at minimum 10%?
Out: Fulfilled

In: Determine whether this compound has inhibition at 3 µM no lower than 10%: CC(C)(C)O/N=C(/c1cc(Cl)c(Cl)cc1O)c1ncccc1O [Compound 32]
Out: Fulfilled

* * *

# Tested on: anesthetized dogs
# assay.protocol: Action of increasing coronary blood flow in anesthetized dogs (administration into coronary artery)
# Assay type: in vivo, dog
# applied.conditions: injected into coronary artery, 30 ug/day, anesthetized Beagle dogs
Each entry falls into one class according to its duration (T1/2): time in which the activity is reduced to half; the ranges are category 1: < 3 min; category 2: ≥ 3 min and < 5 min; category 3: ≥ 5 min

Solved cases below.
{"molecule": "COc1cc(O)c(/C(=N/OC(C)(C)C)c2ncccc2O)cc1Br [Compound 43]", "answer.label": "category 1"}
{"molecule": "CC(C)(C)O/N=C(/c1cc(C#N)c(Cl)cc1O)c1c(O)ccc[n+]1[O-] [Compound 132]", "answer.label": "category 3"}

In: Class for CC(C)(C)O/N=C(/c1cc(Br)c(Cl)cc1O)c1cccc[n+]1[O-] [Compound 101] ?
Out: category 3

In: Band assignment needed for CC(C)(C)O/N=C(/c1cc(Cl)c(F)cc1O)c1ncccc1O [Compound 36] please.
Out: category 2

* * *

# System: Spontaneously hypertensive rats
# assay.protocol: Hypotensive activity in rats (Tail Cuff Method), oral
# Type: in vivo
# applied.conditions: Rattus norvegicus, 1 mg/kg, SHR, after 2 hours, read-out: Maximal hypotensive effect against blood pressure before administration (% pre.), after 2 hours
Kindly state inhibition in vivo at 1 mg/kg for each of the entries shown.
Remember to quote the unit after the number.

Some solved cases for reference:
{"compound": "CC(C)(C)O/N=C(/c1cc(Br)c(F)cc1O)c1c(O)ccc[n+]1[O-] [Compound 69]", "inhibition in vivo at 1 mg/kg": "26%"}
{"compound": "CC(C)(C)O/N=C(/c1cc(F)c(F)cc1O)c1c(O)ccc[n+]1[O-] [Compound 59]", "inhibition in vivo at 1 mg/kg": "22%"}

Hey, quick one: what's inhibition in vivo at 1 mg/kg for each of these?
1. CC(C)(C)O/N=C(/c1cc(Cl)c(Cl)cc1O)c1c(O)ccc[n+]1[O-] [Compound 122]
2. CC(C)(C)O/N=C(/c1cc(Cl)c(F)cc1O)c1c(O)ccc[n+]1[O-] [Compound 58]
3. CC(C)(C)O/N=C(/c1cc(Cl)ccc1O)c1c(O)ccc[n+]1[O-] [Compound 123]
4. CC(C)(C)O/N=C(/c1cc(Br)c(Cl)cc1O)c1c(O)ccc[n+]1[O-] [Compound 119]

Out:
30%
35%
37%
48%

* * *

# Test system: specimen of rat aorta
# assay.protocol: Vasorelaxation activity in a specimen of rat aorta: contraction caused by KCl
# applied.conditions: 3 μM, read-out: constriction inhibitory ratio
For each of the compounds below, state its inhibition at 3 µM.
Numbers only, in %.

{"smiles.repr": "CC(C)(C)O/N=C(/c1cc(Br)c(Cl)cc1O)c1ncccc1O", "experimental.target": "specimen of rat aorta", "inhibition at 3 µM [%]": 1}
{"smiles.repr": "CC(C)(C)O/N=C(/c1cc(C#N)ccc1O)c1ncccc1O", "experimental.target": "specimen of rat aorta", "inhibition at 3 µM [%]": 0}
{"smiles.repr": "COc1cc(O)c(/C(=N/OC(C)(C)C)c2c(O)ccc[n+]2[O-])cc1Br", "experimental.target": "specimen of rat aorta", "inhibition at 3 µM [%]": 0}
{"smiles.repr": "CC(C)(C)O/N=C(/c1cc(Br)c(Cl)cc1O)c1c(O)ccc[n+]1[O-]", "experimental.target": "specimen of rat aorta", "inhibition at 3 µM [%]": 6}
{"smiles.repr": "CC(C)(C)C/N=C(/c1cc(Br)ccc1O)c1cccc[n+]1[O-]", "experimental.target": "specimen of rat aorta", "inhibition at 3 µM [%]": 28}
{"smiles.repr": "CC(C)(C)O/N=C(/c1cc(Cl)c(Cl)cc1O)c1cccc[n+]1[O-]", "experimental.target": "specimen of rat aorta", "inhibition at 3 µM [%]": 12}
{"smiles.repr": "Cc1cc(/C(=N/OC(C)(C)C)c2ncccc2O)c(O)cc1F", "experimental.target": "specimen of rat aorta", "inhibition at 3 µM [%]": 0}
{"smiles.repr": "CC(C)(C)O/N=C(/c1cc(Cl)c(F)cc1O)c1c(O)ccc[n+]1[O-]", "experimental.target": "specimen of rat aorta", "inhibition at 3 µM [%]": 0}

Dear reader, for each entry below, please note its inhibition at 3 µM.
1. CC(C)(C)O/N=C(/c1cc(C(F)(F)F)ccc1O)c1ncccc1O
2. CC(C)(C)O/N=C(/c1cc(F)c(Cl)cc1O)c1ncccc1O

Out:
[7, 0]

For every item in the list below, what is its measured inhibition at 3 µM?
1. CC(C)(C)O/N=C(/c1cc(F)c(F)cc1O)c1cccc[n+]1[O-]
2. Cc1cc(O)c(/C(=N/OC(C)(C)C)c2ncccc2O)cc1F
3. Cc1cc(O)c(/C(=N/OC(C)(C)C)c2c(O)ccc[n+]2[O-])cc1C
4. Cc1cc(O)c(/C(=N/OC(C)(C)C)c2ncccc2O)cc1Br
5. Cc1cc(O)c(/C(=N/OC(C)(C)C)c2ncccc2O)cc1C
6. CC(C)(C)O/N=C(/c1cc([N+](=O)[O-])ccc1O)c1c(O)ccc[n+]1[O-]
7. CC(C)(C)O/N=C(/c1cc(Cl)ccc1O)c1c(O)ccc[n+]1[O-]

Out:
[11, 0, 1, 7, 5, 0, 0]

I need inhibition at 3 µM for every entry listed below, if you could help.
1. CC(C)(C)O/N=C(/c1cc(F)ccc1O)c1ncccc1O
2. CC(C)(C)O/N=C(/c1ccc(F)cc1O)c1ncccc1O
3. CC(C)O/N=C(/c1cc(Br)ccc1O)c1ncccc1O
4. COc1cc(O)c(/C(=N/OC(C)(C)C)c2ncccc2O)cc1Br
5. CC(C)(C)O/N=C(/c1cc(Cl)c(F)cc1O)c1ncccc1O

Out:
[-2, 1, 6, 0, 4]

// field: inhibition at 3 µM; key: CC(C)(C)O/N=C(/c1cc(Br)ccc1O)c1cccc[n+]1[O-] ; value = 11
